# Measured on: c-Src SH2
# Method notes: SH2 binding enrichment of the phosphorylated peptide, bacterial display (enrichment ratio); higher = better substrate or ligand; peptides without Tyr show the background
Measurement type: SH2 binding enrichment
Reply: number alone, nothing else.

Exercise: Quick one: SH2 binding enrichment of ISHVAYCVLGK [TRRAP_Y892_R893C] ?
Key: 0.812

Exercise: Quick one: SH2 binding enrichment of TSNNPYFRDQA [RPGRIP1_Y846_A841T] ?
Key: 0.503

Exercise: Quick one: SH2 binding enrichment of TNYRFYLRSLE [MTM1_Y71_L70F] ?
Key: 0.495

Exercise: Quick one: SH2 binding enrichment of LFLACYFIGGG [UBD_Y161_C162F] ?
Key: 0.793

Exercise: Quick one: SH2 binding enrichment of YDGKDYIALKE [HLA-A_Y147_N151K] ?
Key: 0.495

---

# Measured on: SHP2-C SH2
# Method notes: SH2 binding enrichment of the phosphorylated peptide, bacterial display (enrichment ratio); higher = better substrate or ligand; peptides without Tyr show the background
Measurement type: SH2 binding enrichment

Exercise: Quick one: SH2 binding enrichment of ENAGYYFRISA ?
Key: 0.776

Exercise: Quick one: SH2 binding enrichment of SVICTYSPALN [TP53_Y126_T123I] ?
Key: 0.731

Exercise: Quick one: SH2 binding enrichment of ICANKYMVKSC [RPL10_Y75] ?
Key: 1.12

Exercise: Quick one: SH2 binding enrichment of IRTDAYVQAMT [RPE65_Y89_R91Q] ?
Key: 0.662

Exercise: Quick one: SH2 binding enrichment of VLALWYYYLTH [ZDHHC23_Y127] ?
Key: 1.62

Exercise: Quick one: SH2 binding enrichment of LRNIDYFRLDG [ATRX_Y2083_YF] ?
Key: 22.6

Exercise: Quick one: SH2 binding enrichment of SGETKYNPTEA [NBEAL2_Y2748_E2747K] ?
Key: 0.533

Exercise: Quick one: SH2 binding enrichment of PSPTRYSLSPS [RANBP2_Y785] ?
Key: 0.454

Exercise: Quick one: SH2 binding enrichment of SASSSYSRSRS [SRRM4_Y549_R547S] ?
Key: 0.638

Exercise: Quick one: SH2 binding enrichment of LIDGFYRLTAD [JAK2_Y373_YF] ?
Key: 0.759

Exercise: Quick one: SH2 binding enrichment of DGTESYLTVSS [PLK1_Y462] ?
Key: 0.713

Exercise: Quick one: SH2 binding enrichment of AKRKNYAPVAM [CFAP47_Y557] ?
Key: 1.26

Exercise: Quick one: SH2 binding enrichment of GSLEDYVRETN [GIMAP6_Y176] ?
Key: 0.656

---

# Measured on: Fes (UniProt P07332)
# Sequence (P07332 whole entry, looked up): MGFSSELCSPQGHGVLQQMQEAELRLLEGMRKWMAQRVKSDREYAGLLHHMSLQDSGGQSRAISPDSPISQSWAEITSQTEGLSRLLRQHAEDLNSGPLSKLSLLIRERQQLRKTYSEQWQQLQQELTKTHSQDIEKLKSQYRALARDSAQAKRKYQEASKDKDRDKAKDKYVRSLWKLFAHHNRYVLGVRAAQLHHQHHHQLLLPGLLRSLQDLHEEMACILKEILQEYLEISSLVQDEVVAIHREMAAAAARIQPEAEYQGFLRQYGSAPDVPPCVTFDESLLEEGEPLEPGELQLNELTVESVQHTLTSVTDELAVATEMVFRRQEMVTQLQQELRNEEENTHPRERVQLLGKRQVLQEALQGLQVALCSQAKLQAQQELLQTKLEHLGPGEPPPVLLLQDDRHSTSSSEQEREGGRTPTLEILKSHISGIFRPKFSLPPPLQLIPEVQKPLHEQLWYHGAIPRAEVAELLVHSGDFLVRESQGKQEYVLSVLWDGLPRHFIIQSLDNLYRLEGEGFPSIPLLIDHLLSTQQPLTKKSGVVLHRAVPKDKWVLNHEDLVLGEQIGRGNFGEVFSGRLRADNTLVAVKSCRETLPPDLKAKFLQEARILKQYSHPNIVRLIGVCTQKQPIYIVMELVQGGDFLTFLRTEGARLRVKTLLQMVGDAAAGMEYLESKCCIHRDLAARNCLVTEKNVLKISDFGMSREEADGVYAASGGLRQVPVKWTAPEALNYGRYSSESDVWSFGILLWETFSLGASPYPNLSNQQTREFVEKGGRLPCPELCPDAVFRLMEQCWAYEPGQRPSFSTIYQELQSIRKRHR
# Method notes: phosphorylation enrichment, bacterial display (enrichment ratio); higher = better substrate or ligand; peptides without Tyr show the background
Could you please report measured phosphorylation enrichment for the items listed next?
Reply: number alone, nothing else.

Exercise: Quick one: phosphorylation enrichment of RAFSWYQHQRA [NDST1_Y714_YF] ?
Key: 1.72

Exercise: Quick one: phosphorylation enrichment of VPEANYTSDEE [STK33_Y439_D436E] ?
Key: 1.52

Exercise: Quick one: phosphorylation enrichment of FLTQHYDAIPQ [ANG_Y38_K41I] ?
Key: 0.855

---

# Test system: Fer (mouse)
# Method notes: phosphorylation enrichment, bacterial display (enrichment ratio); higher = better substrate or ligand; peptides without Tyr show the background
Could you please report measured phosphorylation enrichment for the items listed next?
Reply: number alone, nothing else.

Exercise: Quick one: phosphorylation enrichment of SIKDKYVTALC [KCNH2_Y611_Y616C] ?
Key: 0.467

Exercise: Quick one: phosphorylation enrichment of LKALKYKSMKI [ITGA11_Y1098] ?
Key: 0.452

Exercise: Quick one: phosphorylation enrichment of NDKLRYEVSSP [CDH13_Y66] ?
Key: 0.443

Exercise: Quick one: phosphorylation enrichment of SQPASYQRRFL [PPIG_Y320_L324F] ?
Key: 0.364

Exercise: Quick one: phosphorylation enrichment of RFLRGYRQYAY [HLA-A_Y137_D140Y] ?
Key: 0.577

Exercise: Quick one: phosphorylation enrichment of HNGVSYFINLC [IGF2R_Y2024_YF] ?
Key: 0.587

Exercise: Quick one: phosphorylation enrichment of LLKKIYLMLDN [STAT1_Y203_M202I] ?
Key: 0.67

Exercise: Quick one: phosphorylation enrichment of CTIIHYNFMCN [TP53_Y234_T231I_YF] ?
Key: 0.686

Exercise: Quick one: phosphorylation enrichment of FKDGQYWIRGW [ACSF3_Y466_R471W] ?
Key: 0.372

Exercise: Quick one: phosphorylation enrichment of RENGPYYASYP [GDAP2_Y487_T489A] ?
Key: 0.691

Exercise: Quick one: phosphorylation enrichment of EPVSDYINANI [PTPN11_Y304] ?
Key: 0.412

Exercise: Quick one: phosphorylation enrichment of KEDSAYGSQSV [NFKB2_Y868] ?
Key: 0.409

Exercise: Quick one: phosphorylation enrichment of LVRPPYSYLAL [FOXI1_Y126_S129L] ?
Key: 1.23

Exercise: Quick one: phosphorylation enrichment of HFMELYDLNRD [BBS2_Y648_R643H_YF] ?
Key: 0.784

Exercise: Quick one: phosphorylation enrichment of YDGKDYIALKE [HLA-A_Y147_N151K] ?
Key: 0.49

Exercise: Quick one: phosphorylation enrichment of GPIFRYDSGGA [CYP11B1_Y81_L83S] ?
Key: 0.402

Exercise: Quick one: phosphorylation enrichment of FLTQHYDAIPQ [ANG_Y38_K41I] ?
Key: 9.86

Exercise: Quick one: phosphorylation enrichment of DFLSSYSAVNQ [OAT_Y85] ?
Key: 1.17

Exercise: Quick one: phosphorylation enrichment of FGLQAYTKVKT [ALDH2_Y502_E504K_YF] ?
Key: 0.476

Exercise: Quick one: phosphorylation enrichment of HILQLYRCREE [ALPK3_Y342_T338I] ?
Key: 0.556

Exercise: Quick one: phosphorylation enrichment of LVMFIYAIFGM [SCN1A_Y1684] ?
Key: 1.19

Exercise: Quick one: phosphorylation enrichment of QGCGIYKDFFR [PLA2G2D_Y82_S80G_YF] ?
Key: 0.76

Exercise: Quick one: phosphorylation enrichment of REIIAYQPFGK [PRKCG_Y529_P524R_YF] ?
Key: 0.291

Exercise: Quick one: phosphorylation enrichment of TGDVQYRSSVR [FREM2_Y2158] ?
Key: 0.385

Exercise: Quick one: phosphorylation enrichment of KKFFSYAWPFF [BRDT_Y291_H288Y_YF] ?
Key: 0.488

Exercise: Quick one: phosphorylation enrichment of FADIAYNYRHA [PAH_Y166_G171A] ?
Key: 0.424

Exercise: Quick one: phosphorylation enrichment of GSLEDYVRETN [GIMAP6_Y176] ?
Key: 0.398

Exercise: Quick one: phosphorylation enrichment of RDMMDYMPQGV [CYP21A2_Y259_L261P] ?
Key: 0.937

Exercise: Quick one: phosphorylation enrichment of SRWKLYPRMLR [HAO1_Y50] ?
Key: 0.341

Exercise: Quick one: phosphorylation enrichment of QNTGFYFDLFG [PTPN11_Y62_D61Y_YF] ?
Key: 1.12

Exercise: Quick one: phosphorylation enrichment of TDKLFYIYTPG [SLC27A4_Y243_S247P] ?
Key: 0.494

Exercise: Quick one: phosphorylation enrichment of TFVKSYTIHFS [F5_Y2153_M2148T_YF] ?
Key: 0.521

Exercise: Quick one: phosphorylation enrichment of LECEWYKNGVK [TTN_Y2112_P2107L] ?
Key: 0.771

Exercise: Quick one: phosphorylation enrichment of NSFKFYMSDDI [ATRX_Y204_C200S_YF] ?
Key: 0.488

Exercise: Quick one: phosphorylation enrichment of HNLDFYKQTTN [FGFR3_Y648_K650Q_YF] ?
Key: 0.409

Exercise: Quick one: phosphorylation enrichment of WRPFGYPRCRR [BCS1L_Y181_R184C] ?
Key: 0.447

Exercise: Quick one: phosphorylation enrichment of CPYNLYAAQLS [HGD_Y40_E42A] ?
Key: 3.49

Exercise: Quick one: phosphorylation enrichment of FLEEEYVKAVG [TF_Y674_G671E_YF] ?
Key: 0.49

---

# Measured on: EPHB2 (UniProt P29323)
# Sequence (P29323 whole entry, looked up): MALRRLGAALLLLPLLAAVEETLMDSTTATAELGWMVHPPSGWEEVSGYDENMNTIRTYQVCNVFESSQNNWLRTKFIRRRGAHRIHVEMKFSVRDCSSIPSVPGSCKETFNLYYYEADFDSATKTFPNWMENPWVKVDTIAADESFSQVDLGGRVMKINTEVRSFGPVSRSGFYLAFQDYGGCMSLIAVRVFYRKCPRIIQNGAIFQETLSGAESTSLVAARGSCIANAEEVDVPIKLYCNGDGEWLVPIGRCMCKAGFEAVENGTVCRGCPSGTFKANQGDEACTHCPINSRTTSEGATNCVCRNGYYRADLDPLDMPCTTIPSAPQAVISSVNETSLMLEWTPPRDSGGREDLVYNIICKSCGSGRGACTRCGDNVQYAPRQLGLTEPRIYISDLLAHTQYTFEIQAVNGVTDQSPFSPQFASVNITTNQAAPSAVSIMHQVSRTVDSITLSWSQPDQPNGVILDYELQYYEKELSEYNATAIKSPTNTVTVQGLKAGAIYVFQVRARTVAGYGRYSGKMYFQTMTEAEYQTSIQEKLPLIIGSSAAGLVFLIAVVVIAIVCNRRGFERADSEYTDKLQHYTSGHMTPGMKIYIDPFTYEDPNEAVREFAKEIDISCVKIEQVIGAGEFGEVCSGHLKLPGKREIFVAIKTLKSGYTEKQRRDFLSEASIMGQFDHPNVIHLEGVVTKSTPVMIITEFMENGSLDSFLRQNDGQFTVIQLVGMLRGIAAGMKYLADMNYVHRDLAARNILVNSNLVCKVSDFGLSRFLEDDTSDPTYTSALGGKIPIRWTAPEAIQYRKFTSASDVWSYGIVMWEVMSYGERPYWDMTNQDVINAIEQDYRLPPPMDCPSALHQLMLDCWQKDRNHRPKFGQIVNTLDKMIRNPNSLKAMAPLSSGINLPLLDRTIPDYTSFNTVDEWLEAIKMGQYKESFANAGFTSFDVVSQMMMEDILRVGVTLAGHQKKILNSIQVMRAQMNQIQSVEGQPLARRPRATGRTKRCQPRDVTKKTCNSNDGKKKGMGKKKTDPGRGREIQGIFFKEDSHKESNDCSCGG
# Method notes: phosphorylation enrichment, bacterial display (enrichment ratio); higher = better substrate or ligand; peptides without Tyr show the background
Lab note: class by phosphorylation enrichment, see low: < 0.6; middle: ≥ 0.6 and < 0.8; high: ≥ 0.8

Exercise: Which class does GTTIHYNYMCN [TP53_Y234_C229G] fall in?
Key: middle

Exercise: Which class does FLEEEYVKAVG [TF_Y674_G671E_YF] fall in?
Key: middle

Exercise: Which class does EMTRNYIIFIE [BCO2_Y294_G289E] fall in?
Key: low

Exercise: Which class does PSDSGYSFETI [MAP1B_Y1921_YF] fall in?
Key: high

Exercise: Which class does LGQRIYQYIQS [DYRK1B_Y271] fall in?
Key: high

Exercise: Which class does FLRTGYSVPFG [TGM1_Y370_YF] fall in?
Key: low

Exercise: Which class does LLVVLCKYRCY [PSEN1_Y154_Y154C] fall in?
Key: low

Exercise: Which class does HLITAYRAHGF [PDHA1_Y118] fall in?
Key: low

Exercise: Which class does WVFNHYRWFIW [BRCA2_Y2624_I2627F_YF] fall in?
Key: middle

Exercise: Which class does QPGTDYKIFLF [FN1_Y1970_YF] fall in?
Key: high

Exercise: Which class does CTTIHYNYMHN [TP53_Y234_C238H] fall in?
Key: low

Exercise: Which class does TTPFNYSFIFK [RAB14_Y8_A4T_YF] fall in?
Key: middle

Taken from the supplement of paper PMC10065799.
